- Protocol summary: Cytotoxicity against mouse BV-2 cells assessed as survival rate at 100 uM measured after 24 hrs by MTT assay relative to control
- Type: toxicity, cell-based
- Setup conditions: read-out: Survival
Recorded endpoint: viability at 24 h, 100 µM (%)

# Chem smiles, Recorded endpoint, Uom, Observed value
measured = [
    ("Cc1cc(Br)cc(NC(=O)Cn2c(-c3nonc3N)nc3ccccc32)c1", "viability at 24 h, 100 µM", "%", 92.6),
    ("Cc1cc(F)cc(NC(=O)Cn2c(-c3nonc3N)nc3ccccc32)c1", "viability at 24 h, 100 µM", "%", 97.5),
    ("Nc1nonc1-c1nc2ccccc2n1CC(=O)Nc1cc([N+](=O)[O-])cc(C(F)(F)F)c1", "viability at 24 h, 100 µM", "%", 57.5),
    ("Nc1nonc1-c1nc2ccccc2n1CC(=O)Nc1cc(F)cc(Br)c1", "viability at 24 h, 100 µM", "%", 88.4),
    ("Nc1nonc1-c1nc2ccccc2n1CC(=O)Nc1ccc([N+](=O)[O-])c(Cl)c1", "viability at 24 h, 100 µM", "%", 52.6),
    ("Nc1nonc1-c1nc2ccccc2n1CC(=O)Nc1cc(Br)cc(Br)c1", "viability at 24 h, 100 µM", "%", 52),
    ("Cc1cc(NC(=O)Cn2c(-c3nonc3N)nc3ccccc32)cc([N+](=O)[O-])c1", "viability at 24 h, 100 µM", "%", 79.8),
]
